Tested on: RXF 631
protocol: NCI tumour cell line growth inhibition, 48 h
Calls of active or inactive are those of the source. No stated cut-off is given here; in the data, active = GI50 up to about 1.1 µM and inactive = higher.
Give GI50 for every item shown.

O=C1OC(c2ccccc2)=N/C1=C/C=C/c1ccco1; > 100 µM (inactive)

For the 8 compounds below, give their GI50 values.
1. O=C(O)/C(Cl)=C(\Cl)C(=O)Nc1ccccc1
2. N#CC12CCC(O)C(CC1)C2=O (stereo not given)
3. Cc1c(Cl)ccc2c1NC(=O)C2(O)CC(=O)c1ccc(Cl)cc1 (stereo not given)
4. CC1CC2(CC[C@@H]1O)OCCO2 (stereo not given in full)
5. O=C1c2cnccc2Cc2cccc3c2N1c1ccccc1S3
6. CCCCCCCCSC(=O)NCCCC
7. CC1=C(C(=O)Nc2ccc([N+](=O)[O-])cc2)C(c2ccccc2O)C(C(=O)Nc2ccc([N+](=O)[O-])cc2)=C(C)N1
8. CC(C)C1=Cc2ccc3c(c2C(=O)C1=O)CCCC3

Resp:
1. > 100 µM (inactive)
2. > 100 µM (inactive)
3. 71.1 µM (inactive)
4. > 100 µM (inactive)
5. 26.1 µM (inactive)
6. 39.4 µM (inactive)
7. 15.4 µM (inactive)
8. 9.91 µM (inactive)

Req: Entry O=C1c2ccccc2NC1(c1ccccc1)c1c(-c2ccccc2)[nH]c2ccccc12 (stereo not given) needs its GI50 filled in; supply it.
Resp: 9.73 µM (inactive)
